Recorded IC50, one value per entry.
- studySystem: SPNS2 (Mus musculus)
- procedureText: S1P transporter assay: S1P release from whole cells expressing SPNS2
- experimentalContext: HeLa or U937 cells expressing mouse SPNS2; 18 hours; S1P in media measured by LC-MS; read-out: IC50 (in vitro inhibition against SPNS2)
- Protocol: Transporter assays are vectorial and therefore require measurement of the transported analyte in different compartments. The S1P transporter SPNS2 only exports S1P, which obviates measuring uptake of S1P into transporter-expressing cells. Thus, transporter activity was determined by quantifying S1P release from whole cells expressing SPNS2. SPNS2 inhibitor potency was assessed using whole cell assays. […] S1P and S1P-d7 were measured by liquid chromatography mass spectrometry. […]
Counter-ions that a name gives are not always drawn.

compound: CCCCCCCCCCc1ccc(-c2noc(CN3CCNCC3)n2)cc1 [Compound 5h, 2,2,2-trifluoroacetate]
IC50: ≤ 2000 nM

compound: CCCCCCCOc1ccc2cc(-c3noc([C@@H]4CCNC4)n3)ccc2c1 [Compound 5x, hydrochloride]
IC50: > 2000 nM

compound: CCCCCCCCNC(=O)c1ccc(-c2noc(CCCN)n2)cc1 [Compound 13d, hydrochloride]
IC50: > 2000 nM

compound: CCCCCCCCCCc1ccc(-c2noc([C@H](CCCCN)NC(C)=O)n2)cc1 [Compound 21, hydrochloride]
IC50: > 2000 nM

compound: CCCCCCCCCCc1ccc(-c2noc([C@@H]3CCC[C@@H](N)C3)n2)cc1 (racemic) [Compound 5q, hydrochloride]
IC50: > 2000 nM

compound: CCCCCCCCCCc1ccc(-c2noc([C@H]3CCC[C@@H](N)C3)n2)cc1 (racemic) [Compound 5p, hydrochloride]
IC50: > 2000 nM

compound: CCCCCCCCCCc1ccc(-c2noc(CNC(=O)CN(C)C)n2)cc1 [Compound 9ab, hydrochloride]
IC50: > 2000 nM

compound: CCCCCCCCCCc1ccc(-c2noc(CNC(=O)[C@@H]3CCN3)n2)cc1 [Compound 9z, 2,2,2-trifluoroacetate]
IC50: ≤ 2000 nM

compound: CCCCCCCCCOc1ccc(-c2noc(CCCN)n2)cc1F [Compound 5v, hydrochloride]
IC50: ≤ 2000 nM

compound: CCCCCCCCCCc1ccc(-c2noc(CNC(=O)[C@H]3CNCCO3)n2)cc1 [Compound 9q, hydrochloride]
IC50: > 2000 nM

compound: CCCCCCCCCCc1ccc(-c2noc(CNC(=O)CCCCN)n2)cc1 [Compound 9g, hydrochloride]
IC50: ≤ 2000 nM

compound: CCCCCCCCCCc1ccc(-c2noc(CCCN)n2)cc1 [Compound 5e, 2,2,2-trifluoroacetate]
IC50: ≤ 2000 nM

compound: CCCCCCCCCCc1ccc(-c2noc(CC(O)CN3CCCC3)n2)cc1 (stereo not drawn) [Compound 6b, hydrochloride]
IC50: > 2000 nM

compound: CCCCCCCCCCc1ccc(-c2noc([C@H](N)CCCCN)n2)cc1 [Compound 19d, dihydrochloride]
IC50: > 2000 nM

compound: CCCCCCCCCCc1ccc(-c2noc(CC(O)CN)n2)cc1 (stereo not drawn) [Compound 5g, hydrochloride]
IC50: > 2000 nM

====

- studySystem: SPNS2 (Mus musculus, UniProt Q91VM4)
- Sequence (Q91VM4 1-549): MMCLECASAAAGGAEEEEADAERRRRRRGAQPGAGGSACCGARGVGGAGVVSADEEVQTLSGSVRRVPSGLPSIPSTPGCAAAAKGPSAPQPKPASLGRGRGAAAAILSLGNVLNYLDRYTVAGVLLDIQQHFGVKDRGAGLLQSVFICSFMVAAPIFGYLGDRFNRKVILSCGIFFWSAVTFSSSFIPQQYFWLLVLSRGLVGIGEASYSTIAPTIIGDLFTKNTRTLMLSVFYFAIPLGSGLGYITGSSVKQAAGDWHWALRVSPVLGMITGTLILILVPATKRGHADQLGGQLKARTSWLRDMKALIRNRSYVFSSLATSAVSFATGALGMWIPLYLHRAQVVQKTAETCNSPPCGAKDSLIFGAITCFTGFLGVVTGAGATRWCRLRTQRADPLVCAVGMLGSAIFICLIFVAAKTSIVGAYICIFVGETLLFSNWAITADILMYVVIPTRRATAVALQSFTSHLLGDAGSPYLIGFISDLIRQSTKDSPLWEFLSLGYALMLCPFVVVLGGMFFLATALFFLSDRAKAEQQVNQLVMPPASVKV
- procedureText: S1P transporter assay: S1P release from whole cells expressing SPNS2
- experimentalContext: HeLa or U937 cells expressing mouse SPNS2; 18 hours; S1P in media measured by LC-MS; read-out: IC50 (in vitro inhibition against SPNS2)
Counter-ions that a name gives are not always drawn.
Recorded IC50, one value per entry.
measuredMetric: IC50

compound: CCCCCCCCCOc1ccc(-c2noc(CCCN)n2)cc1C(F)(F)F [Compound 5u, hydrochloride]
measuredMetric: IC50
result: > 2000 nM

compound: CCCCNC(=O)c1ccc(-c2noc([C@@H]3CCNC3)n2)cc1 [Compound 13a, hydrochloride]
measuredMetric: IC50
result: > 2000 nM

compound: CCCCCCCCCCc1ccc(-c2noc(CNC(=O)[C@@H](N)CCCC(=O)OC)n2)cc1 [Compound 9aa, hydrochloride]
measuredMetric: IC50
result: ≤ 2000 nM

compound: NCCCc1nc(-c2ccc(OCc3ccccc3)cc2)no1 [Compound 5i, hydrochloride]
measuredMetric: IC50
result: > 2000 nM

====

Recorded pIC50, one value per entry.
- studySystem: SPNS2 (Mus musculus, UniProt Q91VM4)
- procedureText: S1P transporter assay: S1P release from whole cells expressing SPNS2
- experimentalContext: HeLa or U937 cells expressing mouse SPNS2; 18 hours; S1P in media measured by LC-MS; read-out: IC50 (in vitro inhibition against SPNS2)
pIC50: −log10 of the molar value. Counter-ions that a name gives are not always drawn.
measuredMetric: pIC50

molecule: CCCCCCCCCCc1ccc(-c2noc(CNC(=O)[C@@H]3CCNC3)n2)cc1 [Compound 9j, hydrochloride]
measuredMetric: pIC50
result: ≥ 5.70
--
molecule: CCCCCCCCCCc1ccc(-c2noc(CN)n2)cc1 [Compound 5f, 2,2,2-trifluoroacetate]
measuredMetric: pIC50
result: ≥ 5.70
--
molecule: CCCCCCCCCCc1ccc(-c2noc(CNC(=O)[C@@H](N)CC(C)C)n2)cc1 [Compound 9ad, hydrochloride]
measuredMetric: pIC50
result: < 5.70
--
molecule: CCCCCCCCc1ccc(CCc2noc(CCCN)n2)cc1 [Compound 5s, hydrochloride]
measuredMetric: pIC50
result: < 5.70

====

Recorded pIC50, one value per entry.
- studySystem: SPNS2 (Mus musculus, UniProt Q91VM4)
- procedureText: S1P transporter assay: S1P release from whole cells expressing SPNS2
- experimentalContext: HeLa or U937 cells expressing mouse SPNS2; 18 hours; S1P in media measured by LC-MS; read-out: IC50 (in vitro inhibition against SPNS2)
pIC50: −log10 of the molar value. Where a name gives a salt, the structure may show the parent alone.

molecule: CCCCCCCCCCc1ccc(-c2noc(CNC(=O)[C@@H]3C[C@@H](O)CN3)n2)cc1 [Compound 9w, hydrochloride]
studySystem: SPNS2 (Mus musculus, UniProt Q91VM4)
pIC50: < 5.70
//
molecule: CCCCCCCCCCc1cccc(-c2noc(CCCN)n2)c1 [Compound 5j, hydrochloride]
studySystem: SPNS2 (Mus musculus, UniProt Q91VM4)
pIC50: ≥ 5.70
//
molecule: CCCCCCCCCCc1ccc(-c2noc(CNC(=O)[C@H]3CCNC3)n2)cc1 [Compound 9x, hydrochloride]
studySystem: SPNS2 (Mus musculus, UniProt Q91VM4)
pIC50: < 5.70
//
molecule: CCCCCCCCCCc1ccc(-c2noc(CNC(=O)CNC)n2)cc1 [Compound 9l, hydrochloride]
studySystem: SPNS2 (Mus musculus, UniProt Q91VM4)
pIC50: ≥ 5.70
//
molecule: CCCCCCCCCCc1ccc(-c2noc(CNC(=O)C[C@@H](O)CN)n2)cc1 [Compound 9y, hydrochloride]
studySystem: SPNS2 (Mus musculus, UniProt Q91VM4)
pIC50: < 5.70
//
molecule: CCCCCCCCCOc1ccc(-c2noc(CCCN)n2)cc1 [Compound 5t, hydrochloride]
studySystem: SPNS2 (Mus musculus, UniProt Q91VM4)
pIC50: < 5.70
//
molecule: CCCCCCCCCCc1ccc(-c2noc(C(=O)NCCN)n2)cc1 [Compound 16a, hydrochloride]
studySystem: SPNS2 (Mus musculus, UniProt Q91VM4)
pIC50: ≥ 5.70
//
molecule: CCCCCCCCCCc1ccc(-c2noc(CNC(=O)[C@@H](N)CO)n2)cc1 [Compound 9s, hydrochloride]
studySystem: SPNS2 (Mus musculus, UniProt Q91VM4)
pIC50: < 5.70

====

- studySystem: SPNS2 (Mus musculus, UniProt Q91VM4)
- procedureText: S1P transporter assay: S1P release from whole cells expressing SPNS2
- experimentalContext: HeLa or U937 cells expressing mouse SPNS2; 18 hours; S1P in media measured by LC-MS; read-out: IC50 (in vitro inhibition against SPNS2)
Counter-ions that a name gives are not always drawn.

compound: CCCCCCCCCCc1ccc(-c2noc(CNC(=O)C3(N)CC3)n2)cc1 [Compound 9af, hydrochloride]
IC50: > 2 µM
--
compound: CCCCCCCCCCc1ccc(-c2noc(CNC(=O)[C@@H]3C[C@@H](F)CN3)n2)cc1 [Compound 9ae, hydrochloride]
IC50: > 2 µM
--
compound: C/C(=N\OCCCCc1ccccc1)c1ccc(-c2noc(CCCN)n2)cc1 [Compound 28, hydrochloride]
IC50: > 2 µM
--
compound: CCCCCCCCCCc1ccc(-c2noc(CCN)n2)cc1 [Compound 5b, 2,2,2-trifluoroacetate]
IC50: ≤ 2 µM
--
compound: CCCCCCCCCCc1ccc(-c2noc(CCCN(C)C)n2)cc1 [Compound 5l, hydrochloride]
IC50: > 2 µM
--
compound: CCCCCCCCCCc1ccc(-c2noc(C(Cl)CCN)n2)cc1 (racemic) [Compound 5k, hydrochloride]
IC50: > 2 µM
--
compound: CCCCCCCCCCc1ccc(-c2noc(C[C@H](C)N)n2)cc1 [Compound 5c, 2,2,2-trifluoroacetate]
IC50: > 2 µM
--
compound: CCCCCCCCCCc1ccc(-c2noc(CNC(=O)CCCN)n2)cc1 [Compound 9d, hydrochloride]
IC50: ≤ 2 µM
